Hello, the source for this data is patent US10577382B2, in case you need it.

inhibition at 1 µM overview
- Target of assay: CLK2 enzyme (Homo sapiens, UniProt P49760)
- Construct: purchased Thermo Fisher Scientific
- Sequence (P49760 whole entry): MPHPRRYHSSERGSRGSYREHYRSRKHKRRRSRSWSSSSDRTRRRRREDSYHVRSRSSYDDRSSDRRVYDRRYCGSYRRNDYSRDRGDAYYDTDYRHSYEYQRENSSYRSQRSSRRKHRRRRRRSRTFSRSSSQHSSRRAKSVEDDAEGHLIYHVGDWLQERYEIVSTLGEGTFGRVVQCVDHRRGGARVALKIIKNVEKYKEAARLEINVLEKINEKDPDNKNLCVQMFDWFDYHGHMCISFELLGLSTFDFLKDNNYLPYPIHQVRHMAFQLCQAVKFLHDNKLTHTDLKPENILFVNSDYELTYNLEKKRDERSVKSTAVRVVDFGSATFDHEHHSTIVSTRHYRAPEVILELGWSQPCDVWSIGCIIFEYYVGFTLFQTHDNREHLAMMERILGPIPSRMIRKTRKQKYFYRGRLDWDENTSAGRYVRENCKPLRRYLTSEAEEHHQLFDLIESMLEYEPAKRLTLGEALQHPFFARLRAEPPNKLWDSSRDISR
- Assay info: Measurement of CLK2 inhibitory activity (LANCE time-resolved fluorescence, ULight-labeled MBP peptide)
- Format: biochemical
- Experimental setup: compound 1 μM; ATP 1 mM; read-out: CLK2 activity inhibition ratio at compound concentration of 1 μM (ATP 1 mM)
- Procedure: A test compound dissolved in DMSO was added to a reaction solution (50 mM HEPES (pH: 7.5), 10 mM MgCl2, 1 mM EGTA, 2 mM DTT, 0.01% Tween 20, 0.01% BSA) containing a CLK2 enzyme (Thermo Fisher Scientific) and an ULight-labeled MBP peptide (PerkinElmer), and the mixture was then reacted at room temperature for 10 minutes. […] The inhibition ratio (%) of CLK2 by the test compound was calculated in accordance with the following expression. […]
Measured parameter: inhibition at 1 µM (%)

{"columns": ["Molecule", "Result"],
 "data": [
  ["COc1ncnn2ccc(-c3cnc4nc(C)n(Cc5nc(C)no5)c4c3)c12 [Example 186]", 99],
  ["COc1ccnc2ccn(-c3cnc4nc(C)n(Cc5cccc(F)c5)c4c3)c12 [Example 102]", 100],
  ["COc1ncnn2ccc(-c3cnc4nc(C)n(Cc5noc(C)n5)c4c3)c12 [Example 214]", 99],
  ["COc1ncnn2ccc(-c3cnc4nc(C)n(Cc5nnc(C)o5)c4c3)c12 [Example 193]", 100],
  ["COc1ncnn2ccc(-c3cnc4nc(C)n(Cc5nnc(C(F)F)o5)c4c3)c12 [Example 242]", 100]
]}
